# ASSAY TARGET: EP2 (Homo sapiens, UniProt P43116)
# Sequence (P43116 whole entry): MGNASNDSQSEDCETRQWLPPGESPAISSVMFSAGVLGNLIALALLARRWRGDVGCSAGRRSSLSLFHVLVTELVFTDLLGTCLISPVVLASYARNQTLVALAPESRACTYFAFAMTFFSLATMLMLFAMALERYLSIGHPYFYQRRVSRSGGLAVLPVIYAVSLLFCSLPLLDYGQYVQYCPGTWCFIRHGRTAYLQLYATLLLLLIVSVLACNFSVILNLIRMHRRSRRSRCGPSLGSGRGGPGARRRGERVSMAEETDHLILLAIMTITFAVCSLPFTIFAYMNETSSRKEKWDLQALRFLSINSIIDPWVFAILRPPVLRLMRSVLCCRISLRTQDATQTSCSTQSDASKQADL
# MEASUREMENT DESCRIPTION: EP2 cAMP functional assay
MEASURED PARAMETER: EC50 (nM)

1: CCC1(C(O)C/C=C/C2=CCC[C@@H]2CCCc2ccc(C(=O)O)s2)CCC1 (stereo partly drawn)
2: CCC1(C(O)CCCC2C(C#N)CCC2CCCc2ccc(C(=O)O)s2)CCC1 (stereo not drawn) [Compound 22]
3: CCC1(C(O)C/C=C/[C@@H]2[C@@H](CCCc3ccc(C(=O)O)s3)CC[C@H]2F)CCC1 (stereo partly drawn)
4: CCC1(C(O)CCCC2C(C#N)CCC2CCCc2ccc(C(=O)O)s2)CCC1 (stereo not drawn) [Compound 43]
Query :: Quick one: which order do the items above go in by EC50, smallest to largest? Please list the labels in the order you were asked to rank them.
Result :: 3, 2, 1, 4

I: CCC1(C(O)CCC[C@H]2C(=O)CC[C@@H]2CCCc2ccc(C(=O)O)s2)CCC1 (stereo partly drawn)
II: CCC1(C(O)CCC[C@@H]2[C@@H](CCCc3ccc(C(=O)O)s3)CC[C@@H]2Cl)CCC1 (stereo partly drawn)
Query :: Name the one with the greater EC50 value, either I or II as given. Response format: the label of the selected entry.
Result :: II
